- assay_details: MRP1 drug-resistance reversers in H69AR cells – cell-based, doxorubicin co-treatment, primary screen (AID 602);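 note: viability without doxorubicin minus viability with 2 µM doxorubicin for each compound; larger differential means the compound sensitizes cells more to doxorubicin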
- setup_conditions: H69AR cells + 2 uM doxorubicin, CellTiter-Glo, 72 h; at 10 µM; stronger effect = higher value
About 35 (0.04%) of roughly 85,000 compounds were called active. The full list was thinned out, with actives kept by preference.
Below, each entry is listed with its recorded differential viability (reversal).

{"compound": "Cn1c(O)c(C=NCCN2CCNCC2)c(=O)n(C)c1=O", "differential viability (reversal) (%)": 8.13}
{"compound": "CSC1=NP(=S)(SC)N(C)c2nc3n(c21)CCC3 (stereo not given)", "differential viability (reversal) (%)": 57.9}
{"compound": "CCOc1ccc(CN(CCCl)CCCl)cc1C(=O)OC", "differential viability (reversal) (%)": -29}
{"compound": "CC(=O)NC(=O)NC(C)Cc1ccccc1 (stereo not given)", "differential viability (reversal) (%)": -9.72}
{"compound": "CCN(N=Nc1nonc1OC)c1nonc1OC", "differential viability (reversal) (%)": 9.43}

Reference for the values: PubChem BioAssay AID602
